tested on: ovariectomized rats; set-up: species or system Sprague Dawley rats; conditions: rat, in vivo, po, 0.1 mg/kg
Counter-ions that a name gives are not always drawn.
Metric name: Uterine EPO (V. max)

{"columns": ["Compound", "Uterine EPO (V. max)"],
 "data": [
  ["Oc1ccc(-c2sc3ccccc3c2Oc2ccc(OCCN3CCCCCC3)cc2)cc1 [Example 4]", 3.9]
]}

A: Oc1ccc(-c2sc3ccccc3c2Oc2ccc(OCCN3CCCC3)cc2)cc1 [Example 3]
B: CC(C)N(CCOc1ccc(Oc2c(-c3ccc(O)cc3)sc3cc(O)ccc23)cc1)C(C)C [Example 26, hydrochloride]
C: Oc1ccc(-c2sc3cc(O)ccc3c2Oc2ccc(OCCN3CCCCC3)cc2)cc1 [Example 20, hydrochloride]
Order the records by Uterine EPO (V. max), with each subsequent value no larger than the one before. State the ranking by listing the labels in the requested order. B, A, C

I: c1ccc(-c2sc3ccccc3c2Oc2ccc(OCCN3CCCCC3)cc2)cc1 [Example 7, hydrochloride]
II: COc1ccc(-c2sc3cc(OC)ccc3c2Oc2ccc(OCCN3CCCCC3)cc2)cc1 [Example 10]
Kindly identify which of I and II has the larger recorded Uterine EPO (V. max) value. API: response body contains the label of the selected item. II

====

tested on: ovariectomized rats; parameters: species or system Sprague Dawley rats; settings: rat, in vivo, po, 10 mg/kg
Metric name: Uterine EPO (V. max)

{"columns": ["Compound", "Uterine EPO (V. max)"],
 "data": [
  ["Oc1ccc(-c2sc3ccccc3c2Oc2ccc(OCCN3CCCCCC3)cc2)cc1", 3.0],
  ["COc1ccc(-c2sc3cc(OC)ccc3c2Oc2ccc(OCCN3CCCCC3)cc2)cc1", 4.8]
]}

A: Oc1ccc(-c2sc3cc(O)ccc3c2Sc2ccc(OCCN3CCCCC3)cc2)cc1
B: CCN(CC)CCOc1ccc(Oc2c(-c3ccc(O)cc3)sc3ccccc23)cc1
In terms of reported Uterine EPO (V. max), does A or B have the smaller number? # respond with the chosen item's label A

====

test system: ovariectomized rats; set-up: species or system Sprague Dawley rats; details: rat, in vivo, po, 1 mg/kg
Counter-ions that a name gives are not always drawn.
Metric name: Uterine EPO (V. max)

{"columns": ["Molecule", "Uterine EPO (V. max)"],
 "data": [
  ["CCN(CC)CCCOc1ccc(Oc2c(-c3ccc(O)cc3)sc3cc(O)ccc23)cc1 [Example 25, hydrochloride]", 36.0]
]}

a: Oc1ccc(-c2sc3cc(O)ccc3c2Oc2ccc(OCCCN3CCCCC3)cc2)cc1 [Example 27, hydrochloride]
b: Oc1ccc(-c2sc3cc(O)ccc3c2Sc2ccc(OCCN3CCCCC3)cc2)cc1 [Example 53]
c: COc1ccc(-c2sc3cc(OC)ccc3c2Oc2ccc(OCCN3CCCCC3)cc2)cc1 [Example 10]
I would appreciate it if you could sort these 3 molecules by Uterine EPO (V. max), starting from the smallest number. // list labels; follow requested order b, c, a
(b: 1.3, c: 17.7, a: 52.5)

A: Oc1ccc(-c2sc3ccccc3c2Oc2ccc(OCCN3CCCCCC3)cc2)cc1 [Example 4]
B: Oc1ccc(-c2sc3cc(O)ccc3c2Oc2ccc(OCCN3CCOCC3)cc2)cc1 [Example 24, hydrochloride]
C: Oc1ccc(-c2sc3cc(O)ccc3c2Oc2ccc(OCCN3CCCC3)cc2)cc1 [Example 21]
# rank_down: sort by Uterine EPO (V. max), max first Please write the labels in the order that was asked for. B, C, A
